- system.under.test: glucagon receptor (UniProt P47871 26-477, limits assumed)
- Sequence (P47871 26-477 limits assumed): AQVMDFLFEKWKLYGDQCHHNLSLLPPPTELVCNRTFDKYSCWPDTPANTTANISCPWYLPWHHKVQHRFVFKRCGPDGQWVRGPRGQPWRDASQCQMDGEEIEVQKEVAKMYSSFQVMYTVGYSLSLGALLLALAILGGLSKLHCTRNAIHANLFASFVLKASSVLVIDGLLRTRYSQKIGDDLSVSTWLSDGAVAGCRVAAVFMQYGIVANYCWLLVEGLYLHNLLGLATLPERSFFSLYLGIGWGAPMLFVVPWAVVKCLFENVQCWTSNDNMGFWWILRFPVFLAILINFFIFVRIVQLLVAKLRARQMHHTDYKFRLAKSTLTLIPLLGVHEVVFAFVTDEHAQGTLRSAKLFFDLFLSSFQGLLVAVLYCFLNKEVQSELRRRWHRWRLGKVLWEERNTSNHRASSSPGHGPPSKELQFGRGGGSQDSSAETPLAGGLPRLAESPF
- test.details: cell-based or functional assay
Numbered stars: 1 amine (or outer) side, 2 acyl side, 3 side chain; on linkers, the order of the positions; unused ones are H or OH. Square brackets hold non-standard residues; d marks the D form. Side chains are listed from the residue outwards. Ends that are not written are not given here. * marks the point of attachment. C18 diacid = O=C(O)CCCCCCCCCCCCCCCCC(=O)*; γGlu = O=C(O)[C@H](CCC(=O)[*:2])N[*:1]; AEEA = NCCOCCOCC(=O)O
assay.metric: Assay (I) Glucagon [EC50]
Give me the value, and tack the unit on after it.

Query: Quick one: Assay (I) Glucagon [EC50] for HSQGTFTSDYSKYLDSRRAEDFVK([γGlu-γGlu-AEEA-AEEA-γGlu-C18 diacid])WLLST ?
Response: 0.307 nM

Query: Another binder to check: HSQGTFTSDYSKYLDSRRAQDFVK([γGlu-AEEA-AEEA-γGlu-γGlu-C18 diacid])WLLST
Response: 0.106 nM

Query: Another binder to check: HSQGTFTSDYSKYLDSRRAQDFVK([γGlu-γGlu-AEEA-AEEA-γGlu-C18 diacid])WLLNP
Response: 0.156 nM

Query: Another binder to check: HSQGTFTSDYSKYLDSRRAEEFVK([γGlu-γGlu-AEEA-γGlu-C18 diacid])WLLST
Response: 0.12 nM

Query: Another binder to check: HSQGTFTSDYSKYLDSRRAQDFVQWLLK([γGlu-γGlu-AEEA-AEEA-γGlu-C18 diacid])T
Response: 0.055 nM

Query: Another binder to check: HSQGTFTSDYSKYLDSRRAQEFVK([γGlu-γGlu-AEEA-γGlu-C18 diacid])WLLST
Response: 0.053 nM

Query: Another binder to check: HSQGTFTSDYSKYLDSRRAQDFVQWLLK([γGlu-γGlu-AEEA-AEEA-γGlu-C18 diacid])P
Response: 0.189 nM

Query: Another binder to check: HSQGTFTSDYSKYLDSRRAQDFVQWLLK([γGlu-AEEA-AEEA-γGlu-γGlu-C18 diacid])T
Response: 0.093 nM

Query: Another binder to check: HSQ[dF]TFTSDYSKYLDSRRAQDFVK([γGlu-γGlu-AEEA-AEEA-γGlu-C18 diacid])WLLST
Response: 0.044 nM

Query: Another binder to check: HSQGTFTSDYSKYLDSRRAK([γGlu-γGlu-AEEA-AEEA-γGlu-C18 diacid])DFVQWLLNT
Response: 0.058 nM

Query: Another binder to check: HSQGTFTSDYSKYLDSRRAQDFVQWLK([γGlu-γGlu-AEEA-AEEA-γGlu-C18 diacid])NP
Response: 1.17 nM

Query: Another binder to check: HSQGTFTSDYSRYLDSRRAQDFVQWLK([γGlu-γGlu-AEEA-AEEA-γGlu-C18 diacid])NP
Response: 2.11 nM

Query: Another binder to check: HSQGTFTSDYSKYLDSRRAQDFVKWLLNTP (Lys 24: N-epsilon acylated with the substituent printed in the name)
Response: 0.142 nM

Query: Another binder to check: HSQGTFTSDYSKYLDSRRAQDFVK([γGlu-γGlu-γGlu-C18 diacid])WLLST
Response: 0.094 nM

Query: Another binder to check: HSQGTFTSDYSKYLDK([γGlu-AEEA-AEEA-γGlu-γGlu-C18 diacid])RRAQDFVQWLLNT
Response: 0.122 nM

Query: Another binder to check: HSQGTFTSDYSKYLDSRRAQDFVQWLLK([AEEA-AEEA-γGlu-γGlu-γGlu-C18 diacid])T
Response: 0.116 nM

Query: Another binder to check: HSQGTFTSDYSKYLDK([AEEA-AEEA-γGlu-γGlu-γGlu-C18 diacid])RRAQDFVQWLLNT
Response: 0.081 nM

Query: Another binder to check: HSQGTFTSEYSKYLDSRRAQDFVK([γGlu-γGlu-AEEA-γGlu-C18 diacid])WLLST
Response: 2.2 nM

Query: Another binder to check: HSQGTFTSDYSK([γGlu-γGlu-AEEA-AEEA-γGlu-C18 diacid])YLDSRRAQDFVQWLLNP
Response: 1.58 nM

Query: Another binder to check: HSQGTFTSDYSKYLDSRRAQDFVHWLLNTK (C-terminal Lys (position 30): N-epsilon acylated with the substituent printed in the name)
Response: 0.1 nM

Query: Another binder to check: HSQGTFTSDYSKYLDSRRAQDFVK([AEEA-AEEA-γGlu-γGlu-γGlu-C18 diacid])WLLST
Response: 0.115 nM
